# assaySystem: TGF-beta1 (hTGF-beta1) (Homo sapiens, UniProt P01137 P01137:279-390)
# Sequence (P01137 279-390, one chain of several): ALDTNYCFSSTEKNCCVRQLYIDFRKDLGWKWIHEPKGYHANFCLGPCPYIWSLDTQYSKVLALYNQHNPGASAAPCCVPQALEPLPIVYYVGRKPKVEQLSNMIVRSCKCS
# protocol: filter; biphasic; Kd1 11.5±2.0 nM
# conditionDetails: tags: R&D Systems; biotinylated form (NFTG0) used for BIAcore; chain copies: 2
pKd: −log10 of the molar value.
measuredAttribute: pKd

                                     binder  resultnumber
0  40-39 (ssRNA, 2'-F C and U) RNA: GGGAGGACGAUGCGGUGCCUUUAGCCUAAGUUGAUCUAUUCAGCUUUCUGCCGCAGACGACUCGCCCGA         11.06
